# tgt: T1, human VEGF (human, UniProt P15692 207-395, biotinylated (site not stated))
# T1 construct: Biotinylated human VEGF generated internally; also called hVEGF; hVEGF-biotin
# T1 sequence: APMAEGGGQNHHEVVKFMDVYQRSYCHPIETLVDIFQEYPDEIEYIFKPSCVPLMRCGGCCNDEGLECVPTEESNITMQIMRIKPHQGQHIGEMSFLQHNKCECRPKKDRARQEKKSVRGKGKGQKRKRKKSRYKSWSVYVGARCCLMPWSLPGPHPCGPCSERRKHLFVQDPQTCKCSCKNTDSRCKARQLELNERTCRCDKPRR
# assay-protocol: Biacore SPR, hVEGF
Could you please mark true for values of Kd below 0.01 nM and false for values at or above it?

{"columns": ["binder", "classification"],
 "data": [
  ["NVS4 heavy chain variant D56N (Fab, V domains shown, CDR variant of NVS4) VH: EVQLVESGGGLVQPGGSLRLSCTASGFSLTDYYYMTWVRQAPGKGLEWVGFIDPDNDPYYATWAKGRFTISRDNSKNTLYLQMNSLRAEDTAVYYCAGGDHNSGWGLDIWGQGTLVTVSS VL: EIVMTQSPSTLSASVGDRVIITCQASEIIHSWLAWYQQKPGKAPKLLIYLASTLASGVPSRFSGSGSGAEFTLTISSLQPDDFATYYCQNVYLASTNGANFGQGTKLTVLK", "true"],
  ["NVS4 light chain variant Y92F (Fab, V domains shown, CDR variant of NVS4) VH: EVQLVESGGGLVQPGGSLRLSCTASGFSLTDYYYMTWVRQAPGKGLEWVGFIDPDDDPYYATWAKGRFTISRDNSKNTLYLQMNSLRAEDTAVYYCAGGDHNSGWGLDIWGQGTLVTVSS VL: EIVMTQSPSTLSASVGDRVIITCQASEIIHSWLAWYQQKPGKAPKLLIYLASTLASGVPSRFSGSGSGAEFTLTISSLQPDDFATYYCQNVFLASTNGANFGQGTKLTVLK", "false"],
  ["LC7T (Fab, V domains shown, Light chain CDR variant LC7 with tagged NVS4 heavy chain) VH: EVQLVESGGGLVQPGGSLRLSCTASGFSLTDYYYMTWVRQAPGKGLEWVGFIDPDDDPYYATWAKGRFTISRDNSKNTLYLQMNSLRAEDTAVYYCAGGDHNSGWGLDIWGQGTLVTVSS VL: EIVMTQSPSTLSASVGDRVIITCQASQKIKSWLAWYQQKPGKAPKLLIYLASTLAKGVPSRFSGSGSGAEFTLTISSLQPDDFATYYCQNVYLASRNGANFGQGTKLTVLK", "true"],
  ["NVS4 heavy chain variant D57N (Fab, V domains shown, CDR variant of NVS4) VH: EVQLVESGGGLVQPGGSLRLSCTASGFSLTDYYYMTWVRQAPGKGLEWVGFIDPDDNPYYATWAKGRFTISRDNSKNTLYLQMNSLRAEDTAVYYCAGGDHNSGWGLDIWGQGTLVTVSS VL: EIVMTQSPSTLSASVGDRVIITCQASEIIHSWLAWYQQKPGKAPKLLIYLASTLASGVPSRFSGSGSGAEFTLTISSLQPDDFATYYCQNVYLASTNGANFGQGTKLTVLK", "false"],
  ["HC2T (Fab, V domains shown, Tagged heavy chain CDR variant HC2 with NVS4 light chain) VH: EVQLVESGGGLVQPGGSLRLSCTASGFSLTNYYYMTWVRQAPGKGLEWVGFIDPQNDPYYATWAKGRFTISRDNSKNTLYLQMNSLRAEDTAVYYCAGGNHNSGWGLDIWGQGTLVTVSS VL: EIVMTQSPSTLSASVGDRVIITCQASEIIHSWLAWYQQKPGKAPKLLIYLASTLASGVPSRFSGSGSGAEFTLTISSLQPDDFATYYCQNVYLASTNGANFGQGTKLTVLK", "false"]
]}
